Readings of MIC for the listed compounds
# System: Pseudomonas aeruginosa
# protocol: Antibacterial activity against Pseudomonas aeruginosa strain 27853
# Type: functional
measure: MIC (µg/mL)

1) C[C@H](N)[C@H]1CCN(c2cc3c(cc2F)c(=O)c(C(=O)O)cn3-c2ccc(O)cc2)C1 :: 25
2) COc1c(N2CCNCC2)c(F)cc2c(=O)c(C(=O)O)cn(-c3ccc(O)cc3)c12 :: 6.25
3) N[C@@H]1CCC[C@@H]2CN(c3cc4c(cc3F)c(=O)c(C(=O)O)cn4-c3ccc(O)cc3)C[C@@H]21 :: 12.5
4) NC1CCN(c2nc3c(cc2F)c(=O)c(C(=O)O)cn3-c2ccc(O)cc2)C1 (centres undefined) :: 1.56
5) N[C@@H]1[C@H]2CN(c3nc4c(cc3F)c(=O)c(C(=O)O)cn4-c3ccc(O)cc3)C[C@@H]12 :: 0.78
6) C[C@@H]1CN(c2cc3c(cc2F)c(=O)c(C(=O)O)cn3-c2ccc(O)cc2)C[C@H]1N :: 1.56
7) COc1c(N2CC3CC2CN3)c(F)cc2c(=O)c(C(=O)O)cn(-c3ccc(O)cc3)c12 (centres undefined) :: 12.5
8) O=C(O)c1cn(-c2ccc(O)cc2)c2cc(N3CC4CC3CN4)c(F)cc2c1=O (centres undefined) :: 6.25
9) COc1c(N2C[C@@H](N)C3(CC3)C2)c(F)cc2c(=O)c(C(=O)O)cn(-c3ccc(O)cc3)c12 :: 3.13

###

# Tested on: Pseudomonas aeruginosa
# protocol: Antibacterial activity against Pseudomonas aeruginosa strain 27853
# Type: functional
measure: MIC (µg/mL)

1) C[C@@H]1CN(c2nc3c(cc2F)c(=O)c(C(=O)O)cn3-c2ccc(O)cc2)C[C@H](C)N1 :: 6.25
2) CN1CCC2CN(c3nc4c(cc3F)c(=O)c(C(=O)O)cn4-c3ccc(O)cc3)CC21 (centres undefined) :: 6.25
3) COc1c(N2CCC(N)C2)c(F)cc2c(=O)c(C(=O)O)cn(-c3ccc(O)cc3)c12 (centres undefined) :: 6.25
4) N[C@@H]1CN(c2cc3c(cc2F)c(=O)c(C(=O)O)cn3-c2ccc(O)cc2)CC12CC2 :: 1.56
5) C[C@H](N)[C@H]1CCN(c2nc3c(cc2F)c(=O)c(C(=O)O)cn3-c2ccc(O)cc2)C1 :: 3.13
6) NC1CCN(c2cc3c(cc2F)c(=O)c(C(=O)O)cn3-c2ccc(O)cc2)C1 (centres undefined) :: 1.56
7) CN1CCN(c2cc3c(cc2F)c(=O)c(C(=O)O)cn3-c2ccc(O)cc2)CC1 :: 0.78
8) C[C@@H]1CN(c2nc3c(cc2F)c(=O)c(C(=O)O)cn3-c2ccc(O)cc2)C[C@H]1N :: 0.78
9) N[C@@H]1[C@H]2CN(c3cc4c(cc3F)c(=O)c(C(=O)O)cn4-c3ccc(O)cc3)C[C@@H]12 :: 3.13

###

# Tested on: Staphylococcus aureus
# protocol: Antibacterial activity against Staphylococcus aureus strain St au 29213
# Type: functional
measure: log10 MIC (log10 of the value in µg/mL)

1) COc1c(N2C[C@@H](C)N[C@@H](C)C2)c(F)cc2c(=O)c(C(=O)O)cn(-c3ccc(O)cc3)c12 :: 0.50
2) C[C@H](N)[C@H]1CCN(c2nc3c(cc2F)c(=O)c(C(=O)O)cn3-c2ccc(O)cc2)C1 :: -0.11
3) COc1c(N2C[C@@H](C)[C@H](C)C2)c(F)cc2c(=O)c(C(=O)O)cn(-c3ccc(O)cc3)c12 :: -0.11
4) C[C@@H]1CN(c2nc3c(cc2F)c(=O)c(C(=O)O)cn3-c2ccc(O)cc2)C[C@H](C)N1 :: 0.50
5) N[C@@H]1[C@H]2CN(c3cc4c(cc3F)c(=O)c(C(=O)O)cn4-c3ccc(O)cc3)C[C@@H]12 :: -1.00
6) NCC1CCN(c2nc3c(cc2F)c(=O)c(C(=O)O)cn3-c2ccc(O)cc2)C1 (stereo unspecified) :: -0.40
7) C[C@@H]1CN(c2cc3c(cc2F)c(=O)c(C(=O)O)cn3-c2ccc(O)cc2)C[C@H](C)N1 :: -0.70
8) C[C@@H]1C[C@H](N)CN1c1cc2c(cc1F)c(=O)c(C(=O)O)cn2-c1ccc(O)cc1 :: -0.11
9) C[C@H](N)[C@H]1CCN(c2cc3c(cc2F)c(=O)c(C(=O)O)cn3-c2ccc(O)cc2)C1 :: -0.40
10) C[C@@H](N)[C@H]1CCN(c2cc3c(cc2F)c(=O)c(C(=O)O)cn3-c2ccc(O)cc2)C1 :: 0.19
11) N[C@@H]1CCC[C@@H]2CN(c3cc4c(cc3F)c(=O)c(C(=O)O)cn4-c3ccc(O)cc3)C[C@@H]21 :: -0.70
12) CN1CCC2CN(c3nc4c(cc3F)c(=O)c(C(=O)O)cn4-c3ccc(O)cc3)CC21 (stereo unspecified) :: -0.70
13) CN1CCCC2CN(c3cc4c(cc3F)c(=O)c(C(=O)O)cn4-c3ccc(O)cc3)CC21 (stereo unspecified) :: -0.70
14) NC1CCN(c2cc3c(cc2F)c(=O)c(C(=O)O)cn3-c2ccc(O)cc2)C1 (stereo unspecified) :: -0.40
15) CN1CCN(c2nc3c(cc2F)c(=O)c(C(=O)O)cn3-c2ccc(O)cc2)CC1 :: -0.70
16) N[C@@H]1CN(c2nc3c(cc2F)c(=O)c(C(=O)O)cn3-c2ccc(O)cc2)CC12CC2 :: 0.19
17) N[C@H]1CN(c2cc3c(cc2F)c(=O)c(C(=O)O)cn3-c2ccc(O)cc2)CC12CC2 :: -0.40
18) O=C(O)c1cn(-c2ccc(O)cc2)c2cc(N3CC4CC3CN4)c(F)cc2c1=O (stereo unspecified) :: -0.11
19) COc1c(N2CCNCC2)c(F)cc2c(=O)c(C(=O)O)cn(-c3ccc(O)cc3)c12 :: -0.70
20) C[C@H]1CN(c2nc3c(cc2F)c(=O)c(C(=O)O)cn3-c2ccc(O)cc2)C[C@H]1N :: -0.40
21) O=C(O)c1cn(-c2ccc(O)cc2)c2nc(N3CC4CC3CN4)c(F)cc2c1=O (stereo unspecified) :: 0.19
22) C[C@@H](N)[C@H]1CCN(c2nc3c(cc2F)c(=O)c(C(=O)O)cn3-c2ccc(O)cc2)C1 :: 0.19
23) O=C(O)c1cn(-c2ccc(O)cc2)c2cc(N3CC4CCCNC4C3)c(F)cc2c1=O (stereo unspecified) :: -0.40
24) C[C@H]1CN(c2cc3c(cc2F)c(=O)c(C(=O)O)cn3-c2ccc(O)cc2)C[C@H]1N :: -0.70
25) O=C(O)c1cn(-c2ccc(O)cc2)c2nc(N3CC4CCCNC4C3)c(F)cc2c1=O (stereo unspecified) :: -0.40
26) NCC1CCN(c2cc3c(cc2F)c(=O)c(C(=O)O)cn3-c2ccc(O)cc2)C1 (stereo unspecified) :: -0.40
27) C[C@H](N)[C@@H]1CCN(c2cc3c(cc2F)c(=O)c(C(=O)O)cn3-c2ccc(O)cc2)C1 :: -0.40
28) CC1CNCCN1c1nc2c(cc1F)c(=O)c(C(=O)O)cn2-c1ccc(O)cc1 (stereo unspecified) :: -0.11
29) CN1CCN(c2cc3c(cc2F)c(=O)c(C(=O)O)cn3-c2ccc(O)cc2)CC1 :: -1.00
30) COc1c(N2CCN(C)CC2)c(F)cc2c(=O)c(C(=O)O)cn(-c3ccc(O)cc3)c12 :: -0.40
31) COc1c(N2CC3CCCNC3C2)c(F)cc2c(=O)c(C(=O)O)cn(-c3ccc(O)cc3)c12 (stereo unspecified) :: -0.11
32) COc1c(N2CCC(CN)C2)c(F)cc2c(=O)c(C(=O)O)cn(-c3ccc(O)cc3)c12 (stereo unspecified) :: 0.50
33) COc1c(N2CC3CCCN(C)C3C2)c(F)cc2c(=O)c(C(=O)O)cn(-c3ccc(O)cc3)c12 (stereo unspecified) :: -0.11
34) N[C@H]1CN(c2nc3c(cc2F)c(=O)c(C(=O)O)cn3-c2ccc(O)cc2)CC12CC2 :: -0.70
35) N[C@@H]1CN(c2cc3c(cc2F)c(=O)c(C(=O)O)cn3-c2ccc(O)cc2)CC12CC2 :: -0.70
36) NC1CCN(c2nc3c(cc2F)c(=O)c(C(=O)O)cn3-c2ccc(O)cc2)C1 (stereo unspecified) :: -0.11

###

# System: Pseudomonas aeruginosa
# protocol: Antibacterial activity against Pseudomonas aeruginosa strain 27853
# Format: functional
measure: MIC (µg/mL)

1) C[C@@H](N)[C@H]1CCN(c2cc3c(cc2F)c(=O)c(C(=O)O)cn3-c2ccc(O)cc2)C1 :: 50
2) N[C@@H]1CN(c2nc3c(cc2F)c(=O)c(C(=O)O)cn3-c2ccc(O)cc2)CC12CC2 :: 3.13
3) CC1CNCCN1c1nc2c(cc1F)c(=O)c(C(=O)O)cn2-c1ccc(O)cc1 (stereo not given) :: 6.25
4) C[C@H](N)[C@@H]1CCN(c2cc3c(cc2F)c(=O)c(C(=O)O)cn3-c2ccc(O)cc2)C1 :: 25
5) CN1CCCC2CN(c3cc4c(cc3F)c(=O)c(C(=O)O)cn4-c3ccc(O)cc3)CC21 (stereo not given) :: 6.25
6) COc1c(N2C[C@@H](C)[C@H](C)C2)c(F)cc2c(=O)c(C(=O)O)cn(-c3ccc(O)cc3)c12 :: 6.25
7) C[C@H](N)[C@@H]1CCN(c2nc3c(cc2F)c(=O)c(C(=O)O)cn3-c2ccc(O)cc2)C1 :: 12.5
8) O=C(O)c1cn(-c2ccc(O)cc2)c2nc(N3CCNCC3)c(F)cc2c1=O :: 3.13
9) C[C@@H]1C[C@H](N)CN1c1cc2c(cc1F)c(=O)c(C(=O)O)cn2-c1ccc(O)cc1 :: 50
10) N[C@H]1CN(c2cc3c(cc2F)c(=O)c(C(=O)O)cn3-c2ccc(O)cc2)CC12CC2 :: 6.25
11) COc1c(N2C[C@@H](C)N[C@@H](C)C2)c(F)cc2c(=O)c(C(=O)O)cn(-c3ccc(O)cc3)c12 :: 50
12) O=C(O)c1cn(-c2ccc(O)cc2)c2nc(N3CC4CC3CN4)c(F)cc2c1=O (stereo not given) :: 3.13
13) COc1c(N2CC3CCCN(C)C3C2)c(F)cc2c(=O)c(C(=O)O)cn(-c3ccc(O)cc3)c12 (stereo not given) :: 6.25
14) COc1c(N2CCC(CN)C2)c(F)cc2c(=O)c(C(=O)O)cn(-c3ccc(O)cc3)c12 (stereo not given) :: 50
15) O=C(O)c1cn(-c2ccc(O)cc2)c2cc(N3CC4CCCNC4C3)c(F)cc2c1=O (stereo not given) :: 6.25
16) COc1c(N2C[C@@H](C)[C@@H](C)C2)c(F)cc2c(=O)c(C(=O)O)cn(-c3ccc(O)cc3)c12 :: 3.13
17) CN1CCN(c2nc3c(cc2F)c(=O)c(C(=O)O)cn3-c2ccc(O)cc2)CC1 :: 3.13
18) N[C@@H]1CCC[C@@H]2CN(c3nc4c(cc3F)c(=O)c(C(=O)O)cn4-c3ccc(O)cc3)C[C@@H]21 :: 6.25
19) COc1c(N2CC3CCCNC3C2)c(F)cc2c(=O)c(C(=O)O)cn(-c3ccc(O)cc3)c12 (stereo not given) :: 6.25
20) COc1c(N2CCN(C)CC2)c(F)cc2c(=O)c(C(=O)O)cn(-c3ccc(O)cc3)c12 :: 3.13
21) C[C@H]1CN(c2nc3c(cc2F)c(=O)c(C(=O)O)cn3-c2ccc(O)cc2)C[C@H]1N :: 0.78
22) O=C(O)c1cn(-c2ccc(O)cc2)c2nc(N3CC4CCCNC4C3)c(F)cc2c1=O (stereo not given) :: 1.56
23) C[C@H]1CN(c2cc3c(cc2F)c(=O)c(C(=O)O)cn3-c2ccc(O)cc2)C[C@H]1N :: 1.56
24) NCC1CCN(c2nc3c(cc2F)c(=O)c(C(=O)O)cn3-c2ccc(O)cc2)C1 (stereo not given) :: 6.25
25) C[C@@H]1CN(c2cc3c(cc2F)c(=O)c(C(=O)O)cn3-c2ccc(O)cc2)C[C@H](C)N1 :: 3.13
